System: 439559-082-T-J2-PDC complex spheroid growth;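 note: spheroids exposed to agents for 7 days starting day 3 after seeding; percent of DMSO vehicle control viability with 100% = vehicle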
Assay: Anticancer human tumor 439559-082-T-J2-PDC patient-derived colon adenocarcinoma cell line growth inhibition [Asc]
Conditions: second compound 3 µM; first compound 0.316 µM; stronger effect = lower value
The compounds listed here are annotated with their viability, T/C.

INSERT INTO results (compound, assay_system, measured) VALUES
  ('C=CC(=O)N1CCN(c2nc(=O)n(-c3c(C)ccnc3C(C)C)c3nc(-c4c(O)cccc4F)c(F)cc23)C(C)C1 (configuration not stated) + CCN1C(C(=O)NC23CCC(C(=O)O)(CC2)CC3)C(c2cccc(Cl)c2F)C2(C(=O)Nc3cc(Cl)ccc32)C12CCCCC2', '439559-082-T-J2-PDC complex spheroid growth', '107%');

Prompt: What does the data say about its viability, T/C? Entry: O=C(c1cc(Cc2n[nH]c(=O)c3ccccc23)ccc1F)N1CCN(C(=O)C2CC2)CC1 + CCN1C(C(=O)NC23CCC(C(=O)O)(CC2)CC3)C(c2cccc(Cl)c2F)C2(C(=O)Nc3cc(Cl)ccc32)C12CCCCC2
Response: 104%
